target: pooled human IgG (human); assay: cell-based or functional assay; note: test concentration or dose not given here
reported.metric: Enzyme Activity Endpoint Assay (purified): IgG (ng/µL)
Give bare numbers, in ng/µL.

Which value of Enzyme Activity Endpoint Assay (purified): IgG has been reported for PRT-215 (enzyme) MEVVEVWPYGQNPNGKTEILSQTEDSESLQRLRDIEDFQAEKKKEGVVYTKWLDGVTVKDHDFRKIVDGNIEYYATPLLNGRGWYDINKDFNRDSDKCAAAVAANMFHYWLDRNRDNVDRFLKQNPEKHGIIELPDGQLKLSDFLNTYESDNGYRDKSKLFDFISKNFNGPVWTDKLLDNYINGYGYNYKYGRTIEDPTKNTSKINFFKKVFNEKILTDIHSIRNQNEFSDLLSEALYTGKAIGLSYGPAGLRHSLGHIISVWGADFDEDGNVVAIYVTDSDDKKLTIGDERVGLKRYKVSTDDEGRARLTAYTETDNTGGQVRGLWTLDTGTQAWADYFDKTEQTGTDQAEQLEHHHHHH in the records? 708
